Biological target: Rat FAAH-1 (Rattus norvegicus)
Experiment: Rat FAAH-1 assay (Assay Method 2), 3H-anandamide hydrolysis in cell homogenate
Counter-ions that a name gives are not always drawn.
Measured endpoint: IC50 (nM)
Give the value in nM but do not write nM after it.

Use the examples below as a reference point.
>  <Compound>
N[C@H](CNc1cc(-c2ccc(C(F)(F)F)c(Cl)c2)ncn1)c1ccc(Cl)c(Cl)c1

>  <IC50 / nM>
5000

$$$$
>  <Compound>
N[C@@H](CNc1cc(-c2cc3cc(OC(F)(F)F)ccc3s2)ncn1)c1ccccc1

>  <IC50 / nM>
370

$$$$
>  <Compound>
N[C@H](CNc1cc(-c2ccc(C(F)(F)F)c(Cl)c2)ncn1)c1ccc(Cl)cc1 [Example 38, trifluoroacetic acid salt]

>  <IC50 / nM>
2200

$$$$
>  <Compound>
N[C@@H](CNc1cc(-c2ccc(C(F)(F)F)c(Cl)c2)ncn1)c1ccccc1

>  <IC50 / nM>
60

$$$$

# return recorded IC50 for input "N[C@@H](CNc1cc(-c2ccc(C(F)(F)F)c(Cl)c2)ncn1)c1ccc(Cl)c(Cl)c1" 95

# return recorded IC50 for input "N#Cc1ccc([C@@H](N)CNc2cc(-c3ccc(C(F)(F)F)c(Cl)c3)ncn2)cc1" 130

# return recorded IC50 for input "CSc1ccc([C@@H](N)CNc2cc(-c3ccc(C(F)(F)F)c(Cl)c3)ncn2)cc1" 150

###

Target: FAAH (Homo sapiens)
Sequence (O00519 1-579): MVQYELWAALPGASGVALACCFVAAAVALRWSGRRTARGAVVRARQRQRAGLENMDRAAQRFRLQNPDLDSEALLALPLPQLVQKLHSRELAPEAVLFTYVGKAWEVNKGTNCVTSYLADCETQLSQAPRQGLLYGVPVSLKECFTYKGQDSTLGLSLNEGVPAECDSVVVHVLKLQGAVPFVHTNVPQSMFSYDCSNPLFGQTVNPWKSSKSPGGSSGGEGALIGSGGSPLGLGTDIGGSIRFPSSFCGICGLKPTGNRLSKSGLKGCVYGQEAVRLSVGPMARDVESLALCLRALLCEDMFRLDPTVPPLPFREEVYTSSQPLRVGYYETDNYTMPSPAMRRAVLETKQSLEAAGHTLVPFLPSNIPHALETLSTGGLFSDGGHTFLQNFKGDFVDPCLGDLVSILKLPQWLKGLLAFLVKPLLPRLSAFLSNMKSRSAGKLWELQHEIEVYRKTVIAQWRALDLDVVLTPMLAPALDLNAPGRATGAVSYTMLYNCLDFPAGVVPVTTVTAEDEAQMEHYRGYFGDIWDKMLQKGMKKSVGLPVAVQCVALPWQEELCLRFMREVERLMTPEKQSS
Experiment: Human FAAH assay (Assay Method 1), 3H-anandamide hydrolysis in cell homogenate
Counter-ions that a name gives are not always drawn.
Measured endpoint: IC50 (µM)
Give the value in µM but do not write µM after it.

Use the examples below as a reference point.
>  <Compound>
CCOc1ccc(-c2cc(NC[C@H](N)c3ccccc3)ncn2)cc1C(F)(F)F

>  <Measured target>
FAAH (Homo sapiens)

>  <Measured endpoint>
IC50

>  <Val>
0.026

$$$$
>  <Compound>
N[C@@H](CNc1cc(-c2ccc(C(F)(F)F)c(Cl)c2)ncn1)c1cccc(F)c1 [Example 37, trifluoroacetic acid salt]

>  <Measured target>
FAAH (Homo sapiens)

>  <Measured endpoint>
IC50

>  <Val>
0.039

$$$$
>  <Compound>
N[C@@H](CNc1cc(-c2cccc(OC(F)(F)F)c2)ncn1)c1ccccc1

>  <Measured target>
FAAH (Homo sapiens)

>  <Measured endpoint>
IC50

>  <Val>
0.92

$$$$
>  <Compound>
N[C@@H](CNc1cc(-c2ccc(C(F)(F)F)c(Cl)c2)ncn1)c1ccc(SC(F)(F)F)cc1

>  <Measured target>
FAAH (Homo sapiens)

>  <Measured endpoint>
IC50

>  <Val>
0.18

$$$$
>  <Compound>
N[C@H](CNc1cc(-c2ccc(C(F)(F)F)c(Cl)c2)ncn1)c1ccc(C(F)(F)F)cc1

>  <Measured target>
FAAH (Homo sapiens)

>  <Measured endpoint>
IC50

>  <Val>
1.4

$$$$
>  <Compound>
CC(C)(C)OC(=O)N[C@@H](CNc1cc(-c2ccc(C(F)(F)F)c(Cl)c2)ncn1)c1ccccc1

>  <Measured target>
FAAH (Homo sapiens)

>  <Measured endpoint>
IC50

>  <Val>
0.33

$$$$
>  <Compound>
N[C@@H](CNc1cc(-c2ccc(C(F)(F)F)c(Cl)c2)ncn1)c1ccc(Cl)c(F)c1

>  <Measured target>
FAAH (Homo sapiens)

>  <Measured endpoint>
IC50

>  <Val>
0.08

$$$$

# return recorded IC50 for input "N[C@@H](CNc1cc(-c2ccc(Cl)cc2)ncn1)c1ccccc1" 1

###

Molecular target: UniProtKB P97612
Sequence (P97612 1-579): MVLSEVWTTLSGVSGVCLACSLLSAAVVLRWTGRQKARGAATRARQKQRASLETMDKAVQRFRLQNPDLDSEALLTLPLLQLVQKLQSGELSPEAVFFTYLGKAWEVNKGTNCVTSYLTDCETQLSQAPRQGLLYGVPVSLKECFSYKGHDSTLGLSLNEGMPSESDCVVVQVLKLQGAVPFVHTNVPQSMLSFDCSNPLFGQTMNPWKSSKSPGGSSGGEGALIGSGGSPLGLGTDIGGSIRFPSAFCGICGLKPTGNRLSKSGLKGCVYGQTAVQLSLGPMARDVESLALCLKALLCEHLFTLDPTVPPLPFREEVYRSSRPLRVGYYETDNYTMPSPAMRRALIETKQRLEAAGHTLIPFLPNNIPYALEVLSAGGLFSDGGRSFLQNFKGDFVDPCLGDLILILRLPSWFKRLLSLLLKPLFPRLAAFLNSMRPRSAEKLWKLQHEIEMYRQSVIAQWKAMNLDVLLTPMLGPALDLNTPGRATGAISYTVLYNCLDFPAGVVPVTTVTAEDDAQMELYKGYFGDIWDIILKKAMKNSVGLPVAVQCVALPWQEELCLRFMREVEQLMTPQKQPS
Test: Rat FAAH-1 assay (Assay Method 2), 3H-anandamide hydrolysis in cell homogenate
Structures can show the parent of a compound that is named as a salt.
Measured endpoint: IC50

Use the examples below as a reference point.
>  <Compound>
N[C@@H](CNc1cc(-c2ccc(C(F)(F)F)c(Cl)c2)ncn1)c1ccc(Cl)c(F)c1

>  <IC50>
70 nM

$$$$
>  <Compound>
N[C@@H](CNc1cc(-c2ccc(OC(F)(F)F)c(Cl)c2)ncn1)c1ccccc1

>  <IC50>
120 nM

$$$$
>  <Compound>
N[C@@H](CNc1cc(-c2ccc(Cl)c(C(F)(F)F)c2)ncn1)c1ccccc1

>  <IC50>
900 nM

$$$$
>  <Compound>
N[C@H](CNc1cc(-c2ccc(C(F)(F)F)c(Cl)c2)ncn1)c1ccc2c(c1)OC(F)(F)O2

>  <IC50>
770 nM

$$$$
>  <Compound>
N[C@@H](CNc1cc(-c2ccc3c(C(F)(F)F)noc3c2)ncn1)c1ccc(F)cc1 [Example 65, trifluoroacetic acid salt]

>  <IC50>
57 nM

$$$$

# return recorded IC50 for input "CN(C)S(=O)(=O)c1ccc(-c2cc(NC[C@H](N)c3ccccc3)ncn2)cc1" 1600 nM

# return recorded IC50 for input N[C@@H](CNc1cc(-c2ccc(C(F)(F)F)c(Cl)c2)ncn1)c1cccc(F)c1 [Example 37, trifluoroacetic acid salt] 110 nM

# return recorded IC50 for input "N[C@@H](CNc1cc(-c2ccc(OCC(F)(F)F)c(F)c2)ncn1)c1ccccc1" 675 nM

# return recorded IC50 for input "Cc1ccc2sc(-c3cc(NC[C@H](N)c4ccccc4)ncn3)cc2c1" 320 nM

# return recorded IC50 for input N[C@H](CNc1cc(-c2ccc(C(F)(F)F)c(Cl)c2)ncn1)c1ccc(F)c(F)c1 [Example 40, trifluoroacetic acid salt] 5000 nM

# return recorded IC50 for input "N[C@@H](CNc1cc(-c2ccc(C(F)(F)F)c(Cl)c2)ncn1)c1ccc(SC(F)(F)F)cc1" 130 nM

# return recorded IC50 for input "CCSc1ccc(-c2cc(NC[C@H](N)c3ccccc3)ncn2)cc1" 240 nM

###

Target: FAAH (Homo sapiens, UniProt O00519)
Assay: Human FAAH assay (Assay Method 1), 3H-anandamide hydrolysis in cell homogenate
Where a name gives a salt, the structure may show the parent alone.
# label = y if IC50 < 300 nM else n

>  <Compound>
N[C@@H](CNc1cc(-c2ccc(OC(F)(F)F)c(F)c2)ncn1)c1ccc(F)cc1 [Example 64, trifluoroacetic acid salt]

>  <Group label>
y

$$$$

Confirm or reject: IC50 of "N[C@@H](CNc1cc(-c2ccc(C(F)(F)F)c(Cl)c2)ncn1)c1ccc2ccccc2c1" lies strictly below 300 nM y

Confirm or reject: IC50 of "N[C@@H](CNc1cc(-c2ccc(C(F)(F)F)c(Cl)c2)ncn1)c1ccccc1" lies strictly below 300 nM y

Confirm or reject: IC50 of "N[C@@H](CNc1cc(-c2ccc(C(F)(F)F)c(Cl)c2)ncn1)c1ccc(F)cc1" lies strictly below 300 nM y

Confirm or reject: IC50 of "CS(=O)(=O)c1ccc([C@@H](N)CNc2cc(-c3ccc(C(F)(F)F)c(Cl)c3)ncn2)cc1" lies strictly below 300 nM n

Confirm or reject: IC50 of N[C@@H](CNc1cc(-c2ccc3c(C(F)(F)F)noc3c2)ncn1)c1ccc(F)cc1 [Example 65, trifluoroacetic acid salt] lies strictly below 300 nM y
